- Tested on: Mus musculus
- PROTOCOL DESCRIPTION: Antiinflammatory activity in CF1 mouse assessed as inhibition of carrageenan-induced paw edema at 20 mg/kg, ip administered 3 hrs and 30 mins prior to carrageenan-challenge measured after 3 hrs (reference value: 0%)
- Assay type: functional
- CONDITION PARAMETERS: route intraperitoneal
Consider the following partition of reported inhibition in vivo at 20 mg/kg into named classes: bottom bin = under 30%, middle bin = from 30% up to 40%, top bin = 40% and over

N#CCOC(=O)CNC(=O)c1ccccc1: top bin
CC(C)C[C@H](NC(=O)c1ccccc1)C(=O)OCC#N: bottom bin
N#CCOC(=O)CCNC(=O)c1ccccc1: middle bin
N#CCOC(=O)[C@H](Cc1ccccc1)NC(=O)OCc1ccccc1: top bin
CCC(C)C(NC(=O)c1ccccc1)C(=O)OCC#N (stereo not given): bottom bin
N#CCOC(=O)C(Cc1ccccc1)NC(=O)OCc1ccccc1 (stereo not given): middle bin
Cc1ccc(S(=O)(=O)N[C@@H](Cc2ccccc2)C(=O)CCl)cc1: top bin
CC(NC(=O)c1ccccc1)C(=O)OCC#N (stereo not given): bottom bin
